Target: T1, IL-2 receptor βγ complex on pan T cells (human, UniProt P14784 27-551; P31785 23-369)
T1 sequence (looked up) 1: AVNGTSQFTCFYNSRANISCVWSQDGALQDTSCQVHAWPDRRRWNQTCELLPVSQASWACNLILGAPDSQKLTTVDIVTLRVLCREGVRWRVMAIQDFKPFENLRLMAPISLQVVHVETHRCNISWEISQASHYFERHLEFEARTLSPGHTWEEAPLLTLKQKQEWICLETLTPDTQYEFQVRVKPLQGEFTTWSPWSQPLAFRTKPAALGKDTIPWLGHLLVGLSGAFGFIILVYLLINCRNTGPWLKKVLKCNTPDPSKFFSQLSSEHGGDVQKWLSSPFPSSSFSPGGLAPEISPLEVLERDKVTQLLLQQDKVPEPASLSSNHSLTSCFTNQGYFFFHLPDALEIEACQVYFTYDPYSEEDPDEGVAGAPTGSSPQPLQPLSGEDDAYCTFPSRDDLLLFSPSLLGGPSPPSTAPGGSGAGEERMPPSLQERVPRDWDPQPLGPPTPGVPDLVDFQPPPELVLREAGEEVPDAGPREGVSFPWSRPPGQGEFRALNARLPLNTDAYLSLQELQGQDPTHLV
T1 sequence (looked up) 2: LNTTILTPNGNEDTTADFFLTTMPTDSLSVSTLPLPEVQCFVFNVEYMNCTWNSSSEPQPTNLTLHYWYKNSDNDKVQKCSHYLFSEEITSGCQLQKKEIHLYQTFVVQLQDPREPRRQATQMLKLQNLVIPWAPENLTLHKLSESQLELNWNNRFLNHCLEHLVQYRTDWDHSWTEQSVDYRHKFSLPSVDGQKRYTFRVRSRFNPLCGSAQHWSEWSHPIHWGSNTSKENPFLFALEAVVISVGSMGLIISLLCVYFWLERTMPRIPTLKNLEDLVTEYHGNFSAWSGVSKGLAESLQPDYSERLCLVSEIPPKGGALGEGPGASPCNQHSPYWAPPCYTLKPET
Assay: cell-based or functional assay
Primed or numbered codes have the meaning given here. [ ]: non-standard residue; d: D form. Ygp″ = O-(PEG8-amino)-tyrosine (O-(8x polyethylene glycol-amino)-tyrosine); Yn3″ = O-(PEG9-azido)-tyrosine (O-(9x polyethylene glycol-azido)-tyrosine); Ygp = O-(8x polyethylene glycol-amino)-tyrosine; Yn3 = O-(9x polyethylene glycol-azido)-tyrosine; hSer = N[C@@H](CCO)C(=O)O; Nle = CCCC[C@H](N)C(=O)O
endpointLabel: Average EC50, pSTAT5 assay in pan T cells, MMP2 cleaved molecule

| binder | experimentalResult |
| --- | --- |
| CMP-124, MMP2 cleaved (ligand, ends and bridges not checked; also: Lys23 side chain attached to cleavable peptide, MMP2-cleaved, remnant stays attached, cut site not given here) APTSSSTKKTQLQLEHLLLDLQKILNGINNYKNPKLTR[Nle]L[hSer][Yn3″]KF[Ygp″][Nle]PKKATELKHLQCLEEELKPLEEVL[hSer]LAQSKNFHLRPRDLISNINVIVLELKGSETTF[hSer]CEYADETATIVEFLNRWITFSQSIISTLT | 2.07 nM |
| CMP-150, MMP2 cleaved (ligand, also: K22 side chain bears remnant of cleavable peptide after MMP2 cut, cut site not given here) APTSSSTKKTQLQLEHLLLDLK[Nle]ILNGINNYKNPKLTR[Nle]L[hSer][Yn3]KF[Ygp][Nle]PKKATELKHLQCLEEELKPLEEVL[hSer]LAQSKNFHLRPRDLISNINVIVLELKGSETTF[hSer]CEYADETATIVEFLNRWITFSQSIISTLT | 0.45 nM |
